Origin of values: patent US20250026721A1

system-under-test: PIK3CA (Homo sapiens)
Construct: endogenous in cells
Sequence (P42336 whole entry): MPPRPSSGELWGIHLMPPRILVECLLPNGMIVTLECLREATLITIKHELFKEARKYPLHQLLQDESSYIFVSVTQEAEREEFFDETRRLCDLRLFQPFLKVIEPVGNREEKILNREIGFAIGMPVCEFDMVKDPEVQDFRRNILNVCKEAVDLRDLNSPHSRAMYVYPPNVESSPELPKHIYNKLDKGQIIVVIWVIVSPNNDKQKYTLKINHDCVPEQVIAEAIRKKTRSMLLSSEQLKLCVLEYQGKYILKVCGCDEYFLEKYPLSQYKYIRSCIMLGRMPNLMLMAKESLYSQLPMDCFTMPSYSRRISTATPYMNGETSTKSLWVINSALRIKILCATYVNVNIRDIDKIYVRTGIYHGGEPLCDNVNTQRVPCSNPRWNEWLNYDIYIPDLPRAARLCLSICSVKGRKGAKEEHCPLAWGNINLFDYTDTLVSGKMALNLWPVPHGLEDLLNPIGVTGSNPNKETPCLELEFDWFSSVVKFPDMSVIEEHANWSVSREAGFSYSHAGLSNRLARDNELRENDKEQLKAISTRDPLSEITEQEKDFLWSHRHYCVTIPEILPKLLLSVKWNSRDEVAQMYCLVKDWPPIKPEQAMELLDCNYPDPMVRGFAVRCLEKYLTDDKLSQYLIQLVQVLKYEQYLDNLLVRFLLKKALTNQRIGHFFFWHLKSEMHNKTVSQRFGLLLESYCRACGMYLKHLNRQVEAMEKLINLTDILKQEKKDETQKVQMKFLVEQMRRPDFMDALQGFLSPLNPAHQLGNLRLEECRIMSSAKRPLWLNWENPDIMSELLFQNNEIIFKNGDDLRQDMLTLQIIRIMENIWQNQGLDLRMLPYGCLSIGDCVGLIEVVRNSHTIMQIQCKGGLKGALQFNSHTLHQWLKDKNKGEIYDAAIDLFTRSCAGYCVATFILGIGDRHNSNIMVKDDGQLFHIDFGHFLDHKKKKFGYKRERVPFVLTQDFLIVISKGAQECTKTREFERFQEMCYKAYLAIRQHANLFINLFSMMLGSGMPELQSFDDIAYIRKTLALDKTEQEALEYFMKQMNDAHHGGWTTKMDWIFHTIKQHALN
Sequence (P27986 whole entry partner): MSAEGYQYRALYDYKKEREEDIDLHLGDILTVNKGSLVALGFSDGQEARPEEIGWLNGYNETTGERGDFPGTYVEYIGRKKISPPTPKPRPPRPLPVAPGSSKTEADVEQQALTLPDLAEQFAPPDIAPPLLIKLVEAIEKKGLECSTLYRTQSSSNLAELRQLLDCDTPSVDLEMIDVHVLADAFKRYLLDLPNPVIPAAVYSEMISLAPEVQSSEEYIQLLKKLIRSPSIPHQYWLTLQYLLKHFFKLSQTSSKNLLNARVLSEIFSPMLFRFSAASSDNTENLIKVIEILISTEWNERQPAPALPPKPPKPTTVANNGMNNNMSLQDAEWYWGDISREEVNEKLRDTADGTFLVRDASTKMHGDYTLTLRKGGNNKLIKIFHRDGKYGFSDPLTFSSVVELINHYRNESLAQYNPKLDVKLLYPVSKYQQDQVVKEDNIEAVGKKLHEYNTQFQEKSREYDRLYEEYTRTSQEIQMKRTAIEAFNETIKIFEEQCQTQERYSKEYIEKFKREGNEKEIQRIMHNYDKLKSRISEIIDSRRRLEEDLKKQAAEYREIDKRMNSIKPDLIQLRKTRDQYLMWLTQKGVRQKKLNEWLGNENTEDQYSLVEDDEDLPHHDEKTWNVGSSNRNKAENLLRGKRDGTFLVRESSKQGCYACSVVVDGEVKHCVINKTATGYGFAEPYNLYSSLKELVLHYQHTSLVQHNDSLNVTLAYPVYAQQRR
assay-explanation: In vitro ELISA target engagement assay for PIK3CA in Jurkat cellular lysate (competition with PIK3CA Biotin Probe)
experimental-conditions: 1 hour at rt, then 500 nM PIK3CA Biotin Probe, read-out: Elisa Target Engagement Assay (TE50)
readout-name: IC50
Write the numeric value and follow it with the unit.

* COC1(C(=O)N[C@H](C)/C=C\S(C)(=O)=O)CCN(S(=O)(=O)c2ccc(C(F)(F)F)cc2-c2ccccc2Cl)CC1 [Compound 139] | 0.33 µM
* C[C@H](/C=C\S(C)(=O)=O)NC(=O)C1(F)CCN(S(=O)(=O)c2cnc(C(F)(F)F)cc2-c2ccccc2Cl)CC1 [Compound 207] | 0.184 µM
* CCOCc1cccc(-c2cc(Cl)ccc2S(=O)(=O)N2CCC(F)(C(=O)N[C@@H](C)/C=C\S(C)(=O)=O)CC2)c1 [Compound 17] | 0.76 µM

Given O=C(N[C@H]1C=CS(=O)(=O)C1)C1(F)CCN(S(=O)(=O)c2ccc(Br)cc2-c2ccccc2Cl)CC1 [Compound 67] , state its recorded IC50.
0.0956 µM

Same read-out for CCC(F)(F)CN1C[C@H](C(=O)N2CCC(F)(C(=O)N[C@H](C)/C=C\S(C)(=O)=O)CC2)[C@H](c2ccccc2Cl)C1 [Compound 178] ?
0.54 µM

Also check COc1ccc(S(=O)(=O)N2CCC(F)(C(=O)N[C@H](/C=C\S(C)(=O)=O)CC(F)(F)F)CC2)c(-c2ccccc2Cl)c1 (single isomer, unassigned) [Compound 239]
0.28 µM
